# Test system: SARS coronavirus 3C-like protease (3CLpro)
# method description: SARS 3CLpro protease inhibitors, late-stage follow-up, biochemical, fluorescence, single concentration, set 5 (AID 602487)
# assay conditions: purified 3CLpro, fluorogenic substrate cleavage; at 100 µM; hits give high values
The source made the active and inactive calls. No rule for the calls is given here.
Listing of recorded inhibition by entry.

- molecule: "CC(C)C(=O)Nc1ccc(N(Cc2ccsc2)C(=O)Cn2cc([Si](C)(C)C)nn2)cc1"
  inhibition: "4.5% (inactive)"
- molecule: "CC(C)C(=O)Nc1ccc(N(Cc2ccsc2)C(=O)Cn2cc(-c3ccccc3)nn2)cc1"
  inhibition: "3.7% (inactive)"

Please supply the value of reported inhibition for the item CC(=O)Nc1ccc(N(C(=O)Cn2ccnn2)C(C(=O)NC(C)(C)C)c2ccsc2)cc1 (stereo not given) 5.4% (inactive)

Please supply the value of reported inhibition for the item CC(C)C(=O)Nc1ccc(N(Cc2ccsc2)C(=O)Cn2ccnn2)cc1 26.1% (inactive)

Please supply the value of reported inhibition for the item CC(=O)Nc1ccc(N(C(=O)Cn2cc([Si](C)(C)C)nn2)C(C(=O)NC(C)(C)C)c2ccsc2)cc1 (stereo not given) -3.9% (inactive)
